Reference source: patent US20230287217A1

assay: UV-Vis absorption and fluorescence spectroscopy (spectral properties in aqueous media / PBS buffer); assay type: physicochemical; set-up: unit not given here; conditions: aqueous media
Measure name: Brightness
Give bare numbers.

# annotated cases, reported Brightness shown
Cc1cc(C(=O)NCCOCCOCCCCCCCl)ccc1-c1c2cc/c(=[N+](/C)CCCS(=O)(=O)[O-])cc-2oc2cc(N(C)C)ccc12 [OF550HALO] : 53
CN(C)c1ccc2c(-c3cc(C(=O)O)ccc3C(=O)[O-])c3ccc(=[N+](C)C)cc-3oc2c1 [TMRCOOH] : 49
C#Cc1cccc(Nc2ncnc3ccc(NC(=O)CCNC(=O)c4ccc(C(=O)[O-])c(-c5c6ccc(=[N+](C)C)cc-6oc6cc(N(C)C)ccc56)c4)cc23)c1 [TMRErl(T)] : 21

Record Brightness per entry; entries follow.
1. C#Cc1cccc(Nc2ncnc3ccc(NC(=O)CCNC(=O)c4ccc(C5=C6C=C/C(=[N+](/C)CCCS(=O)(=O)[O-])C=C6[Si](C)(C)c6cc(N(C)C)ccc65)c(C)c4)cc23)c1 [OF650Erl(T)]
2. CN(C)c1ccc2c(c1)[Si](C)(C)C1=CC(=[N+](C)C)C=CC1=C2c1cc(C(=O)NCCOCCOCCCCCCCl)ccc1C(=O)[O-] [SiRHALO]
3. CN(C)c1ccc2c(-c3cc(C(=O)NCCCn4cc(-c5cccc(Nc6ncnc7ccccc67)c5)nn4)ccc3C(=O)[O-])c3ccc(=[N+](C)C)cc-3oc2c1 [TMRErl(UnT)]

**Result**
[7, 3, 7]
